target: SFRP-1 (Homo sapiens, UniProt Q8N474); experiment: Cell-based assay for in vitro measurement of SFRP-1/SARP2 antagonist activity (U2OS cells co-transfected with 16x TCF-tk-Luciferase reporter, Wnt and hSFRP-1); conditions: U2OS, read-out: Fold Induction with SFRP-1, Conc 15 μM; single dose; luciferase reporter, fold induction over SFRP-1 control; cells with SFRP-1;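 further: U2OS cells co-transfected with a TCF-tk luciferase reporter, a Wnt vector, hSFRP-1 or empty vector and CMV-βgal, luciferase luminescence read in cell lysates alongside βgal activity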
Sequence (Q8N474 32-314): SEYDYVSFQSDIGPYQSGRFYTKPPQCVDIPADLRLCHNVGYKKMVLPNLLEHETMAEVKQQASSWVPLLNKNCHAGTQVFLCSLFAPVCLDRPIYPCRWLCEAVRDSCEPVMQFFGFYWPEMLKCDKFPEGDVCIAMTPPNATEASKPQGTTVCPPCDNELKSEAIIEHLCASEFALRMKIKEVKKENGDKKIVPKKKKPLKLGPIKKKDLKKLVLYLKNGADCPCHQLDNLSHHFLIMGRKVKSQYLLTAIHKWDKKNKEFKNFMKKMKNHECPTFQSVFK
experimental.endpoint: fold induction at 15 µM
Number, no unit, nothing else.

Form field: reported fold induction at 15 µM of O=C(N1CCOCC1)N1CCC(NS(=O)(=O)c2cc(S(=O)(=O)c3ccccc3)ccc2Cl)CC1 3.4

What measured fold induction at 15 µM goes with Cc1ccc(S(=O)(=O)c2ccc(F)cc2)cc1S(=O)(=O)NC1CCNCC1 ? 3

Can you share its fold induction at 15 µM? I mean this compound: Cc1ccc(S(=O)(=O)c2ccccc2)cc1S(=O)(=O)NC1CCN(C(=O)Oc2ccc(F)cc2)CC1 1.6

Dear colleague, I am looking for the recorded fold induction at 15 µM of the following compound: CC(C)c1ccc(S(=O)(=O)c2ccc(F)cc2)cc1S(=O)(=O)NCCn1ccnc1C(C)C 3.6

Can you look up the measured fold induction at 15 µM of CC(C)c1cc(C(C)C)c(S(=O)(=O)c2ccccc2)cc1S(=O)(=O)NCCc1ccccc1 for me? 1.4

What does the record list as fold induction at 15 µM for CC(C)c1ccc(S(=O)(=O)c2ccc(F)cc2)cc1S(=O)(=O)NC1CCN(C(=S)Nc2ccc3c(c2)C(=O)OC32c3ccc(O)cc3Oc3cc(O)ccc32)CC1 ? 2.4

Value lookup for fold induction at 15 µM; key = CC(C)c1ccc(S(=O)(=O)c2ccc(N(C)CCC#N)cc2)cc1S(=O)(=O)NCC1CCOCC1 2.2

Recorded values, source patent US20060276464A1.
